Reference source for all entries: paper PMC6844396

Each entry below carries its reported melting point.

Past entries and their recorded results:
{"compound": "COc1cc(-c2ccc3nc(NC(=O)c4ccc(N5CCN(C)CC5)cc4)sc3c2)cc(OC)c1OC [12c]", "melting point": "236.4 to 238.3 °C"}
{"compound": "CCN1CCN(c2ccc(C(=O)Nc3n[nH]c4cc(-c5ccc(C#N)cc5)ccc34)cc2)CC1", "melting point": "226.4 to 230 °C"}
{"compound": "CCN1CCN(c2ccc(C(=O)Nc3n[nH]c4cc(-c5ccc(Cl)c(Cl)c5)ccc34)cc2)CC1", "melting point": "224.9 to 228 °C"}

Assign melting point to the following record: COc1cc(F)cc(-c2ccc3c(NC(=O)c4ccc(N5CCCN(C)CC5)cc4)n[nH]c3c2)c1
230.4 to 234.6 °C

Indicate its recorded melting point; the compound in question is CCN1CCN(c2ccc(C(=O)Nc3n[nH]c4cc(-c5cccc(OC(C)C)c5)ccc34)cc2)CC1
227.9 to 231.7 °C

Tell us which melting point value is on record for COc1cc(OC)cc(-c2ccc3nc(NC(=O)c4ccc(N5CCN(C)CC5)cc4)sc3c2)c1 [12b]
234.6 to 238.2 °C

Output measured melting point for this item: CCN1CCN(c2ccc(C(=O)Nc3n[nH]c4cc(-c5cccc(C(=O)OC)c5)ccc34)cc2)CC1
228.7 to 233.4 °C

Note down melting point recorded for COc1cc(F)cc(-c2ccc3c(NC(=O)c4cnc(N5CCN(C)CC5)cn4)n[nH]c3c2)c1
237.7 to 240.3 °C

----------
target: Bcr-Abl (Homo sapiens); assay: ELISA kinase assay, Bcr-Abl; settings: kinase selectivity panel
Sequence (P00519 27-1130): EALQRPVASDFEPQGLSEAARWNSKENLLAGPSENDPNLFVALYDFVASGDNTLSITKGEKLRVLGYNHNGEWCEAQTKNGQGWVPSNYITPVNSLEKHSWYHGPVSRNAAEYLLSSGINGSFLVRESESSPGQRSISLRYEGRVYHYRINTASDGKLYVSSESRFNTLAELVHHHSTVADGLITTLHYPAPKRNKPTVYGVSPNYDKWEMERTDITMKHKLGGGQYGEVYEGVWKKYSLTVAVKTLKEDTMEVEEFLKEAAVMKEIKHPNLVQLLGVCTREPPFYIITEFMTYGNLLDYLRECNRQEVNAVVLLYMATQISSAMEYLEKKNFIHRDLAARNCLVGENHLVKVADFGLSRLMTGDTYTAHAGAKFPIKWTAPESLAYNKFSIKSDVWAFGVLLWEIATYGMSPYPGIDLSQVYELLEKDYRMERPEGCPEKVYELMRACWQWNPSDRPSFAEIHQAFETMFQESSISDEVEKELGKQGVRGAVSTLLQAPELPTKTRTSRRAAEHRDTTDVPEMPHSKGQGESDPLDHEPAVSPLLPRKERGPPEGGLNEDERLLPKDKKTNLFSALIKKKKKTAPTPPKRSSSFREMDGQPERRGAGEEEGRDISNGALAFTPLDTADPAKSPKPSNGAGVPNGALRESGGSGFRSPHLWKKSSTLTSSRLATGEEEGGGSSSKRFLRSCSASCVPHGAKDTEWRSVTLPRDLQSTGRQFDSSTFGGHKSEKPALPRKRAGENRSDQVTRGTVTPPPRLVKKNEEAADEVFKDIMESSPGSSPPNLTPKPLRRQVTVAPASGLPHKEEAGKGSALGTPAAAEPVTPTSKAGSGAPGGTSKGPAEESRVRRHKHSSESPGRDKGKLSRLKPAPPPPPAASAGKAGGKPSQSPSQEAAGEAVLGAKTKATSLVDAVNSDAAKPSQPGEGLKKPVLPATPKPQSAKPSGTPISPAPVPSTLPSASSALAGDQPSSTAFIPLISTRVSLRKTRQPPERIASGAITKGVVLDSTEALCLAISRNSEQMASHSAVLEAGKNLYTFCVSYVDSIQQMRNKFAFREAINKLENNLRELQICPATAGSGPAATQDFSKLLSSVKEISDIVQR
Sequence (P11274 1-927 partner): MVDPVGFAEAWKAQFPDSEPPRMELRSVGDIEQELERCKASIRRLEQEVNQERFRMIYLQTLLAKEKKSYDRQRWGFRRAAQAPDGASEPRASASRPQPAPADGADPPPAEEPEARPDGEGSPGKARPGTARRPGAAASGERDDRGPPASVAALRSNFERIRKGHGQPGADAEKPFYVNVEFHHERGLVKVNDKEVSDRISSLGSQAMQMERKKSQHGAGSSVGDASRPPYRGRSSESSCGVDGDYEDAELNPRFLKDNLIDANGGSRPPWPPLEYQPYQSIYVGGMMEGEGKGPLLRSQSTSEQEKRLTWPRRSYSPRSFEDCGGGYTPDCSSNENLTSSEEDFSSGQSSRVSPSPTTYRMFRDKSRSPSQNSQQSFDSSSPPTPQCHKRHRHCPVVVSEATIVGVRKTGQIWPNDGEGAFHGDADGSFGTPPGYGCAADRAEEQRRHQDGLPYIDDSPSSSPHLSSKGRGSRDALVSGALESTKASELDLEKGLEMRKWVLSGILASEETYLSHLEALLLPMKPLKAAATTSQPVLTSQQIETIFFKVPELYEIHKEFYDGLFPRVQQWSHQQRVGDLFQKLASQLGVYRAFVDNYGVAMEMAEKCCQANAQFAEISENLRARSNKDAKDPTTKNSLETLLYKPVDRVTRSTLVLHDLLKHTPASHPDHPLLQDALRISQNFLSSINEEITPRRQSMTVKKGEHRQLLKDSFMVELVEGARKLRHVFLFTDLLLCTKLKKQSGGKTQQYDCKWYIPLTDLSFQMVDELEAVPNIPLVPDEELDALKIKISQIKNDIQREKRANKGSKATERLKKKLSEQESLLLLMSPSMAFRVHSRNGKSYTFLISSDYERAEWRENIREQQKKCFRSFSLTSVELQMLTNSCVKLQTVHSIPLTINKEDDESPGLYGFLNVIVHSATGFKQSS
pIC50: −log10 of the molar value.
observationType: pIC50

Provide pIC50 value for the following compound: COc1cc(F)cc(-c2ccc3c(NC(=O)c4ccc(N5CCC(N(C)C)CC5)cc4)n[nH]c3c2)c1 [9u]
< 6.00

----------
biological target: FGFR1 (Homo sapiens)
Sequence (P11362 22-822): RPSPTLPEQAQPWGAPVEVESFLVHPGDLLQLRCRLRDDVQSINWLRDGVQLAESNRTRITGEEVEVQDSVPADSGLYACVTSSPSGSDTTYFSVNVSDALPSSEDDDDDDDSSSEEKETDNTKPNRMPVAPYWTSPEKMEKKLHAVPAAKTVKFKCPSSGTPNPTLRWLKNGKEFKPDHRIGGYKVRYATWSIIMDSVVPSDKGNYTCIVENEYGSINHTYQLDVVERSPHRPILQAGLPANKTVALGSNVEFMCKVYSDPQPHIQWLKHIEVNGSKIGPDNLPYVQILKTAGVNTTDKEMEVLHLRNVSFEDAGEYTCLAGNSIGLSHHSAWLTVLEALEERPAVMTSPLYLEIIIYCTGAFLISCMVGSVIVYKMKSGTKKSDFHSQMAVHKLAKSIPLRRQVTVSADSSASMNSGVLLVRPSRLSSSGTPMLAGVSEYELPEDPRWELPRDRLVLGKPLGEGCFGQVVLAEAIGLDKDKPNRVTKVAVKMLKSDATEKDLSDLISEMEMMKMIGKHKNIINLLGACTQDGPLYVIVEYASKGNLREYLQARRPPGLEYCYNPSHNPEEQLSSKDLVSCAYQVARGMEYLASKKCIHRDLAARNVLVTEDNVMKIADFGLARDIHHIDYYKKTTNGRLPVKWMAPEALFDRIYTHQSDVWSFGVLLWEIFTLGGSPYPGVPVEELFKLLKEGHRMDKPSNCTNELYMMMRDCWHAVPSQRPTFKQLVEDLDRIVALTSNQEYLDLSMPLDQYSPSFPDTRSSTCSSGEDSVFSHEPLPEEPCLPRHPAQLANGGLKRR
Listed molecules paired with reported IC50
Record the value in nM, omitting the unit from your answer.

Worked set:
{"molecule": "COc1cc(F)cc(-c2ccc3c(NC(=O)c4cnc(N5CCN(C)CC5)cn4)n[nH]c3c2)c1 [9z]", "IC50 [nM]": 4.6}
{"molecule": "CCN1CCN(c2ccc(C(=O)Nc3n[nH]c4cc(-c5cc(Cl)ccc5Cl)ccc34)cc2)CC1 [9l]", "IC50 [nM]": 50.6}
{"molecule": "CCN1CCN(c2ccc(C(=O)Nc3n[nH]c4cc(-c5cc(F)cc(OC)c5)ccc34)cc2)CC1 [9o]", "IC50 [nM]": 5.5}
{"molecule": "COc1cc(F)cc(-c2ccc3c(NC(=O)c4ccc(N5CCC(N(C)C)CC5)cc4)n[nH]c3c2)c1 [9u]", "IC50 [nM]": 3.3}

Kindly consider the entry below.
Dear colleague, please send me the reported IC50 for COc1cc(F)cc(-c2ccc3c(NC(=O)c4ccc(N5C[C@@H](C)N[C@@H](C)C5)cc4)n[nH]c3c2)c1 [9v] when you can.
13.2

----------
This section presents molecules with their documented melting point values.

Consider the reported melting point for these molecules:
{"molecule": "CCN1CCN(c2ccc(C(=O)Nc3n[nH]c4cc(-c5ccc(C(F)(F)F)cc5Cl)ccc34)cc2)CC1 [9p]", "observationType": "melting point", "result": "227.9 to 232 °C"}
{"molecule": "COc1cccc(-c2ccc3c(NC(=O)c4ccc(N5CCN(C)CC5)cc4)n[nH]c3c2)c1 [9c]", "observationType": "melting point", "result": "224.8 to 227.4 °C"}

Please supply the value of reported melting point for the item CCN1CCN(c2ccc(C(=O)Nc3n[nH]c4cc(-c5ccn(C)n5)ccc34)cc2)CC1 [9t]
221.6 to 224.2 °C

Supply measured melting point of CCN1CCN(c2ccc(C(=O)Nc3n[nH]c4cc(-c5cc(Cl)ccc5Cl)ccc34)cc2)CC1 [9l] in your reply.
231.5 to 234.6 °C

In one line, give reported melting point of the entry CCN1CCN(c2ccc(C(=O)Nc3n[nH]c4cc(-c5ccc(C)c(OC)c5)ccc34)cc2)CC1 [9i] .
227.3 to 231.2 °C

Indicate the recorded melting point value for this molecule: COc1cc(F)cc(-c2ccc3c(NC(=O)c4ccc(CN5CCN(C)CC5)cc4)n[nH]c3c2)c1 [9x]
240.3 to 242.5 °C
